- Assay System: PepTSt
- Experimental Parameters: PepTSt in SapA/POPS; MST, 20 °C
Residues, ends and D or L forms follow the SMILES beside them.
Readout: pKd
Notebook: values listed as pKd are -log10 of the concentration (mol/L).

Record CC(C)C[C@H](N)C(=O)N[C@@H](C)C(=O)O [Leu-Ala] (H-Leu-Ala-OH; N-terminus and C-terminus assumed) , field pKd: 2.26

* * *

- Assay System: UniProt Q8EHE6
- Protocol Summary: MST di-/tripeptide binding in solution to PepTSo2
- Experimental Parameters: PepTSo2 reconstituted in SapA/BL, 20 °C
Residues, ends and D or L forms follow the SMILES beside them.
Readout: Kd (mM)
I only need the number, in mM, no unit after it.

get_value(item= C[C@H](N)C(=O)N[C@@H](Cc1ccccc1)C(=O)N[C@@H](C)C(=O)O [Ala-Phe-Ala] (H-Ala-Phe-Ala-OH; N-terminus and C-terminus assumed) , readout=Kd) returns 5
